Field: Selectivity (PDE-6/PDE-5). Provide a value for each of the compounds that follow.
System: bovine retinal PDE-6
Test: PDE-6 enzyme assay, [3H]cGMP
Assay type: biochemical
Settings: IC50 for PDE-6/IC50 for PDE-5
Please reply with the number alone, leaving off any unit.

Ask: Consider the compound COc1ccc(CNc2nc(N3CC4CC4C3)ncc2C(=O)N[C@H]2CC[C@H](O)CC2)cc1C (stereo partly shown) and give its measured Selectivity (PDE-6/PDE-5).
Result: 85

Ask: Entry COc1ccc(CNc2nc(N3CC4CC4C3)ncc2C(=O)N[C@H]2CC[C@H](O)CC2)cc1Cl (stereo partly shown) : reported Selectivity (PDE-6/PDE-5) = ?
Result: 148

Ask: Return reported Selectivity (PDE-6/PDE-5); argument: COc1ccc(CNc2nc(N3CC4CC4C3)ncc2C(=O)N[C@H]2CC[C@H](O)CC2)cc1F (stereo partly shown)
Result: 140

Ask: Fill in the blank: the reported Selectivity (PDE-6/PDE-5) of COc1ccc(CNc2nc(N3CCC4(CC4)C3)ncc2C(=O)NCCN2CCN(C)CC2)cc1Cl is ____.
Result: 1000

* * *

Test: Pharmacokinetics (PK) in SD rats
Assay type: in vivo
Conditions: rat, intravenous injection, 2 mg/kg
measured-parameter: Vss_obs (L/kg)
Give the value, in units of L/kg, as a plain number.

Ask: Look at this compound and give its reported Vss_obs. COc1ccc(CNc2nc(N3CC4CC4C3)ncc2C(=O)N[C@H]2CC[C@H](O)CC2)cc1C (stereo partly shown)
Result: 4.48

Ask: Which Vss_obs reading was recorded for the compound CCOc1ccc(CNc2nc(N3CC4CC4C3)ncc2C(=O)N[C@H]2CC[C@H](O)CC2)cc1Cl (stereo partly shown) ?
Result: 3.02

Ask: Fill in the blank: the reported Vss_obs of COc1ccc(CNc2nc(N3CC4CC4C3)ncc2C(=O)N[C@H]2CC[C@H](O)CC2)cc1F (stereo partly shown) is ____.
Result: 4.59

Ask: Entry COc1ccc(CNc2nc(N3CC4CC4C3)ncc2C(=O)N[C@H]2CC[C@H](O)CC2)cc1C(F)(F)F (stereo partly shown) has what Vss_obs?
Result: 2.33

* * *

Please respond with reported pIC50 for every item in the list.
Target: bovine retinal PDE-6 (Bos taurus (Bovine), UniProt P11541+P23439)
Sequence (P11541 whole entry, looked up): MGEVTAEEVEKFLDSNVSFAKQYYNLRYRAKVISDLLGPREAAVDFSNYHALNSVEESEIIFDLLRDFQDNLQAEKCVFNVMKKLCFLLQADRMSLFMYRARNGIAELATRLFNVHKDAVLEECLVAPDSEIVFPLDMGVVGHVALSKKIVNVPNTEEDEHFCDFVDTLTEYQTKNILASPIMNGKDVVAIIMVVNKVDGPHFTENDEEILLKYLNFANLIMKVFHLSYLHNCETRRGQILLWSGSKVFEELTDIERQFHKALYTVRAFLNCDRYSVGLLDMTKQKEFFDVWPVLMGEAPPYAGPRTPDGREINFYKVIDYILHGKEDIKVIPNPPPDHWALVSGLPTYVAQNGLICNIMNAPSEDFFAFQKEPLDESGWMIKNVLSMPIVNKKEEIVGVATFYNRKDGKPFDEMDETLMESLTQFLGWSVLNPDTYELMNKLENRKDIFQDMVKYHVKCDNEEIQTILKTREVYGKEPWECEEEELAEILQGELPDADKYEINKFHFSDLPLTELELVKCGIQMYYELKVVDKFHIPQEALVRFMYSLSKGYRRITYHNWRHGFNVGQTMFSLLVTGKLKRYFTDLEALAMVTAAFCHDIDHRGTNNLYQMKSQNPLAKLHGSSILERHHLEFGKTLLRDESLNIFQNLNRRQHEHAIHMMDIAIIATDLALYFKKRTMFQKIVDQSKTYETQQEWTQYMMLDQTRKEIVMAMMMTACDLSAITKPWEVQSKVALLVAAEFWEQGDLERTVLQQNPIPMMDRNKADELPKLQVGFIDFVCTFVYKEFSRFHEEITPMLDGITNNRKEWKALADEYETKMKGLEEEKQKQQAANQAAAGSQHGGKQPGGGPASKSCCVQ
Sequence (P23439 whole entry, looked up): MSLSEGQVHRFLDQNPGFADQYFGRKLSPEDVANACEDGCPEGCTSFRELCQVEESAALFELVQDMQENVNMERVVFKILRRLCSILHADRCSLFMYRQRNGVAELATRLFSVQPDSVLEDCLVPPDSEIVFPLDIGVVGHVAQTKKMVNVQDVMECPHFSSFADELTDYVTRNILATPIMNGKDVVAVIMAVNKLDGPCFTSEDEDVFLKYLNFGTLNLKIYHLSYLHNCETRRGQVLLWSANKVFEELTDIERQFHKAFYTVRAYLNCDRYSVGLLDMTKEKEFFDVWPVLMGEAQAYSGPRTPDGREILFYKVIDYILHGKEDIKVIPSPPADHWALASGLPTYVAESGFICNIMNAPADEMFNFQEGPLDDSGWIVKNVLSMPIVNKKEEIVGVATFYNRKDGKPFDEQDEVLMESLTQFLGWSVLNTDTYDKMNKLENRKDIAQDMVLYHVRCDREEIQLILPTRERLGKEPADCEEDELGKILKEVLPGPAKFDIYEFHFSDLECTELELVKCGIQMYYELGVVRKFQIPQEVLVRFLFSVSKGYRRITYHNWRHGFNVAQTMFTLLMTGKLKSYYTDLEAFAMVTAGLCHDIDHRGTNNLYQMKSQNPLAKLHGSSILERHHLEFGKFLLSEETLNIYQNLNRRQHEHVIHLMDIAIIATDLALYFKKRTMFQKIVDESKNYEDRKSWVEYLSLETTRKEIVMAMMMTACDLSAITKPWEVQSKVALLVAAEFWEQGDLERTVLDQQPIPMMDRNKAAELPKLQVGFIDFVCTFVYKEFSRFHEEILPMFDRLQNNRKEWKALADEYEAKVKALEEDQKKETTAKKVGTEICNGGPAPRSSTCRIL
Assay: PDE-6 enzyme assay, [3H]cGMP
Assay type: biochemical
Settings: Table 3; read-out: IC50 on PDE-6
# reply with the number alone; pIC50 is -log10 of concentration in mol/L

Ask: // pIC50 lookup, key: COc1ccc(CNc2nc(N3CC4CC4C3)ncc2C(=O)N[C@H]2CC[C@H](O)CC2)cc1Cl (some centres unmarked) [Compound 11]
Result: 7.21

Ask: Which pIC50 value belongs to COc1ccc(CNc2nc(N3CCC4(CC4)C3)ncc2C(=O)NCCN2CCN(C)CC2)cc1Cl [Compound 46] ?
Result: 6.51

Ask: Any idea what pIC50 was measured for COc1ccc(CNc2nc(N3CC4CC4C3)ncc2C(=O)N[C@H]2CC[C@H](O)CC2)cc1C (some centres unmarked) [Compound 50] ?
Result: 6.18

Ask: Value lookup for pIC50; key = COc1ccc(CNc2nc(N3CCC4(CC4)C3)ncc2C(=O)N[C@H]2CC[C@H](O)CC2)cc1Cl [Compound 38]
Result: 7.24

Ask: Data request, read-out pIC50, for COc1ccc(CNc2nc(N3CC4CC4C3)ncc2C(=O)N[C@H]2CC[C@H](O)CC2)cc1F (some centres unmarked) [Compound 48]
Result: 5.95

* * *

Biological target: bovine retinal PDE-6 (Bos taurus (Bovine), UniProt P11541+P23439)
Assay: PDE-6 enzyme assay, [3H]cGMP
Type: biochemical
Conditions: Table 4-1; read-out: PDE-6 (IC50 nM)
For each of the compounds below, state its IC50.
Write the value in nM as a bare number.

Ask: Fill in: IC50 of COc1ccc(CNc2nc(N3CC4CC4C3)ncc2C(=O)N[C@H]2CC[C@H](O)CC2)cc1F (stereo partly drawn) [Compound 48] is ___
Result: 1110

Ask: I'd like to know its IC50. The compound in question is COc1ccc(CNc2nc(N3CC4CC4C3)ncc2C(=O)NCc2ccccc2)cc1Cl (stereo not drawn) [Compound 3]
Result: 8.89

Ask: Item COc1ccc(CNc2nc(N3CCC4(CC4)C3)ncc2C(=O)N[C@H]2CC[C@H](O)CC2)cc1Cl [Compound 38] has what recorded IC50?
Result: 58

Ask: Which value of IC50 has been reported for COc1ccc(CNc2nc(N3CC4CC4C3)ncc2C(=O)N[C@H]2CC[C@H](O)CC2)cc1Cl (stereo partly drawn) [Compound 11] in the records?
Result: 61

Ask: Which IC50 value belongs to COc1ccc(CNc2nc(N3CCC4(CC4)C3)ncc2C(=O)NCCN2CCN(C)CC2)cc1Cl [Compound 46] ?
Result: 310

Ask: Name the recorded IC50 for COc1ccc(CNc2nc(N3CC4CC4C3)ncc2C(=O)N[C@H]2CC[C@H](O)CC2)cc1C (stereo partly drawn) [Compound 50] .
Result: 660

* * *

Kindly supply the reported bioavailability values for the records listed here.
Assay: Pharmacokinetics (PK) in SD rats
Type: in vivo
Settings: SD, plasma, po; rat, intragastric administration, 2 mg/kg; read-out: F % (absolute bioavailability)
The answer is to be given in %; state only the numeric part.

Ask: Item COc1ccc(CNc2nc(N3CCC4(CC4)C3)ncc2C(=O)NCc2ncccn2)cc1Cl [Compound 41] has what recorded bioavailability?
Result: 17.7

Ask: Fill in: bioavailability of COc1ccc(CNc2nc(N3CCC4(CC4)C3)ncc2C(=O)NCc2ccccn2)cc1Cl [Compound 40] is ___
Result: 9.5

Ask: bioavailability lookup needed for COc1ccc(CNc2nc(N3CC4CC4C3CO)ncc2C(=O)NCc2ccccc2)cc1Cl (stereo not shown) [Compound 32] , thanks.
Result: 3.5

Ask: # input compound: COc1ccc(CNc2nc(N3CC4CC4C3)ncc2C(=O)NCc2ccccn2)cc1Cl (stereo not shown) [Compound 2] ; wanted: its bioavailability
Result: 12

Ask: Requested field: bioavailability. Item: COc1ccc(CNc2nc(N3CCC4(CC4)C3)ncc2C(=O)N[C@H]2CC[C@H](O)CC2)cc1Cl (stereo in doubt) [Compound 43]
Result: 18

Ask: Look at this compound and give its reported bioavailability. COc1ccc(CN=c2[nH]c(N3CCC[C@H]3CO)ncc2C(=O)NCc2ncccn2)cc1Cl [Avanafil, reference compound]
Result: 4.5

Ask: Requested read-out: bioavailability. Entry: COc1ccc(CNc2nc(N3CCC4(CC4)C3)ncc2C(=O)N[C@H]2CC[C@H](O)CC2)cc1Cl [Compound 38]
Result: 35

* * *

Target: PDE-5 enzyme (human blood platelets) (Homo sapiens (Human))
Assay: PDE-5 enzyme assay, [3H]cGMP
Type: biochemical
Settings: Table 2-1; repetition; read-out: IC50 on PDE-5 (repetition of Example 2)
measured-parameter: IC50 (nM)
Reply numerically in nM, unit not repeated.

Ask: GET /values?readout=IC50&item= COc1ccc(CNc2nc(N3CC4CC4C3)ncc2C(=O)N[C@H]2CC[C@H](O)CC2)cc1Cl (stereo partly shown)
Result: 0.41

* * *

Assay: Pharmacokinetics (PK) in SD rats
Assay type: in vivo
Conditions: SD, plasma, po; rat, intragastric administration, 2 mg/kg
measured-parameter: Cmax (ng/mL)
Only the number, expressed in ng/mL, is required.

Ask: Field request: Cmax | item: COc1ccc(CNc2nc(N3CC4CC4C3CO)ncc2C(=O)NCc2ccccc2)cc1Cl (centres unmarked)
Result: 6.5

Ask: Which Cmax is listed for COc1ccc(CNc2nc(N3CCC4(CC4)C3)ncc2C(=O)NCc2ccccn2)cc1Cl ?
Result: 13.9

Ask: What measured Cmax goes with COc1ccc(CN=c2[nH]c(N3CCC[C@H]3CO)ncc2C(=O)NCc2ncccn2)cc1Cl [Avanafil, reference compound] ?
Result: 18

Ask: Cmax for COc1ccc(CNc2nc(N3CC4CC4C3)ncc2C(=O)NCc2ccccn2)cc1Cl (centres unmarked) ?
Result: 12

Ask: Using the record for COc1ccc(CNc2nc(N3CCC4(CC4)C3)ncc2C(=O)NCc2ncccn2)cc1Cl , report its Cmax.
Result: 43.8

* * *

For each entry below, report its log10 half-life value.
Test: Pharmacokinetics (PK) in SD rats
Type: in vivo
Details: SD, plasma; rat, intravenous injection, 1 mg/kg
Please be aware that the numbers have been log10-transformed from half-life in h.

Ask: Report log10 half-life for COc1ccc(CNc2nc(N3CCC4(CC4)C3)ncc2C(=O)NCCN2CCN(C)CC2)cc1Cl please.
Result: 1.14

Ask: log10 half-life for COc1ccc(CNc2nc(N3CCC[C@H]3CO)ncc2C(=O)N[C@H]2CC[C@H](O)CC2)cc1Cl [WO-88, reference compound] ?
Result: 0.00

Ask: Given the entry COc1ccc(CNc2nc(N3CC4CC4C3CO)ncc2C(=O)NCc2ccccc2)cc1Cl (centres unmarked) , report its measured log10 half-life.
Result: 0.23

Ask: Recorded log10 half-life of COc1ccc(CNc2nc(N3CC4CC4C3)ncc2C(=O)N[C@H]2CC[C@H](O)CC2)cc1Cl (some centres unmarked) , please.
Result: 0.38

Ask: For COc1ccc(CNc2nc(N3CCC4(CC4)C3)ncc2C(=O)NCc2ccccn2)cc1Cl , what is its reported log10 half-life?
Result: 0.44

Ask: Reported log10 half-life, compound COc1ccc(CNc2nc(N3CC4CC4C3)ncc2C(=O)NCc2ccccn2)cc1Cl (centres unmarked) : ____
Result: 0.25

Ask: Data request, read-out log10 half-life, for COc1ccc(CNc2nc(N3CCC4(CC4)C3)ncc2C(=O)NCc2ncccn2)cc1Cl
Result: -0.08

Ask: May I ask what log10 half-life has been recorded for COc1ccc(CNc2nc(N3CCC4(CCC4)CC3)ncc2C(=O)NCc2ncccn2)cc1Cl ?
Result: 0.17
